Provide the reported Inhibition of each item.
Tested on: HepG2
Method notes: GSK_TCMDC: Percent inhibition of human HepG2 cell line. Test compounds present at 10uM.
Type: functional
Answer with a number only, understood to be in %.

In plain terms, Cl.O=C(Nc1cccc(Cl)c1)OC1CCCN2CCCCC12 (stereo not drawn) has a documented Inhibition of 6

In plain terms, `COc1cc(NC(=O)/C=C/c2cc(F)cc(F)c2F)cc(OCCN2CCC3(CC2)OCCO3)c1.O=C(O)C(=O)O` has a documented Inhibition of 17

In plain terms, `Cn1c(N)c(N=O)c(=O)[nH]c1=O` has a documented Inhibition of 58

In plain terms, `COc1cccc2c(NN=Cc3cccc(Cl)c3)cc(C)nc12` has a documented Inhibition of 3

In plain terms, `COc1ccc(-c2cccc(NC(=O)c3cccc(C#N)c3)c2)cc1CN1CCCC1.O=C(O)C(F)(F)F` has a documented Inhibition of 28

In plain terms, `COc1ccccc1Nc1nc(C)cc(NCc2ccc(-c3c(C)noc3C)cc2)n1` has a documented Inhibition of 12

In plain terms, `CC(=O)N1N=C(c2cccs2)Sc2c1nc(-c1ccc(Cl)cc1)n2C(C)=O` has a documented Inhibition of 3

In plain terms, `Cc1ccccc1CCNC(=O)c1cnc(N2CCN(c3ccncc3)CC2)c(Cl)c1.O=C(O)C(F)(F)F` has a documented Inhibition of 36

In plain terms, CC(C)CCN1CCC(Oc2ccc(NC(=O)c3ccc4ncccc4c3)cc2Cl)C1.O=C(O)C(F)(F)F (stereo not drawn) has a documented Inhibition of 33

In plain terms, `CN1CCC(NCc2ccc(-c3ccc(S(=O)(=O)NCc4ccccc4)s3)cc2)CC1.O=C(O)C(F)(F)F` has a documented Inhibition of 77

In plain terms, `Cc1c(C)n(C2CCCC2)c2ncnc(OC3CCN(CC(=O)NCC4CC4)CC3)c12` has a documented Inhibition of 20

In plain terms, `CN(CCN)Cc1cccc(-c2ccc(-c3nc4cc(C(F)(F)F)ccc4[nH]3)s2)c1.O=C(O)C(F)(F)F` has a documented Inhibition of 27

In plain terms, `COCC(=O)Nc1nc2ccccc2[nH]1` has a documented Inhibition of 0

Provenance of the data: ChEMBL document CHEMBL1157539
